# subject_of_test: CFTR (Homo sapiens, UniProt P13569, DEL508-508)
# Construct: endogenous in cells; host or cells: primary human bronchial epithelial cells, F508del/MF genotype
# Sequence (P13569 with tags, fused parts or gaps DEL508-508): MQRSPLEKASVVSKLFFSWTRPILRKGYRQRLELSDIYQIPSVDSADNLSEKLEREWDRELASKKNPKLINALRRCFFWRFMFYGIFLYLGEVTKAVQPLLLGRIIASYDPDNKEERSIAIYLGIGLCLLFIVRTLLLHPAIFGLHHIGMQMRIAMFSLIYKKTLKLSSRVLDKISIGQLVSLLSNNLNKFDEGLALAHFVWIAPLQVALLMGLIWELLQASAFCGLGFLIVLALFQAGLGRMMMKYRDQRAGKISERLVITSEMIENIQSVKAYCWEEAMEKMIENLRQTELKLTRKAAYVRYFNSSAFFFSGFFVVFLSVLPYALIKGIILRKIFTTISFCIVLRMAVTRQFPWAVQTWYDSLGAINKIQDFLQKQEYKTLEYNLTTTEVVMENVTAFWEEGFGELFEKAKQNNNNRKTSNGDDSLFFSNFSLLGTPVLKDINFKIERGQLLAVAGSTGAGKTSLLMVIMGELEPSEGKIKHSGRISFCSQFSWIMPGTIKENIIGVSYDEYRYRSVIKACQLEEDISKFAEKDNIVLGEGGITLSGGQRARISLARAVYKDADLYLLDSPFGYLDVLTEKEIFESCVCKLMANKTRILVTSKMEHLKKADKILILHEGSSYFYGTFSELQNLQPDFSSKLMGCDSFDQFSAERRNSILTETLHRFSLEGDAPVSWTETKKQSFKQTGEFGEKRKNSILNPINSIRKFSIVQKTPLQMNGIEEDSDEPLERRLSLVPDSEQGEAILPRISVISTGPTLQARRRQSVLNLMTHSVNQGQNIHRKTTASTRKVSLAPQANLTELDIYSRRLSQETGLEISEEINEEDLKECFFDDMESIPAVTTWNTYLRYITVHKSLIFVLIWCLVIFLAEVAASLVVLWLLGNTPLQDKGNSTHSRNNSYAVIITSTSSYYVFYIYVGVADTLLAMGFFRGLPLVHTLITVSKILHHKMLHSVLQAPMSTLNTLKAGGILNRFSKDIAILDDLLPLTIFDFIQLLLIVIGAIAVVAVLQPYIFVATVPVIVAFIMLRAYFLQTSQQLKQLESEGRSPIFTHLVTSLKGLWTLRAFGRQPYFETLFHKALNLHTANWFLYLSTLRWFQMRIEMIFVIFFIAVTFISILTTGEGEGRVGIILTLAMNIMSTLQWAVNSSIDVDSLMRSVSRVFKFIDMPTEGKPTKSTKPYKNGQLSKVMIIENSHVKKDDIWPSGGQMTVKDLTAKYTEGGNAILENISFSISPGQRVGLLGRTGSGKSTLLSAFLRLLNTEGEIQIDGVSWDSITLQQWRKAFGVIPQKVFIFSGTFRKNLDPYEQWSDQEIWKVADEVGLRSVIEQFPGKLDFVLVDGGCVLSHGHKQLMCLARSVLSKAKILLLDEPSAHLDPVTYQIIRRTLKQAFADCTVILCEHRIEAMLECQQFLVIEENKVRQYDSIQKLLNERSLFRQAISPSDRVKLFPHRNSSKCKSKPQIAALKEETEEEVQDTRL
# assay_info: HBE Assay: Ussing chamber assay of CFTR-mediated short-circuit currents in F508del/MF-HBE cells with 1 μM Ivacaftor
# Assay type: cell-based
# experimental_context: with 1 μM Ivacaftor, 18-24 hours, 20% human serum

- molecule: "Cc1cccc(CC2CCCCC2)c1-c1nc2nc(c1C)OC[C@@H](CC(C)(C)C)N(Cc1ncccc1N1CCOCC1)C(=O)c1cccc(c1)S(=O)(=O)N2 (atropisomer, axis not shown) [Compound 310]"
  HBE Max Activity: "+++ (+++ is >600%)"
- molecule: "Cc1cccc(CC2CCOCC2)c1-c1nc2nc(c1C)OC[C@@H](CC(C)(C)C)N(Cc1ncc(N3CCOCC3)cn1)C(=O)c1cccc(c1)S(=O)(=O)N2 (single isomer, unassigned)"
  HBE Max Activity: "+++ (+++ is >600%)"
- molecule: "Cc1cccc(CC2CCCCC2)c1-c1nc2nc(c1C)OC[C@@H](CC(C)(C)C)N(Cc1ncc(N(C)C)cn1)C(=O)c1cccc(c1)S(=O)(=O)N2 (atropisomer, axis not shown) [Compound 304]"
  HBE Max Activity: "+++ (+++ is >600%)"

###

# subject_of_test: CFTR (Homo sapiens, UniProt P13569)
# Sequence (P13569 with tags, fused parts or gaps DEL508-508): as above
# assay_info: Membrane Potential Dye, Enteroid Assay B
# Assay type: cell-based
reported_endpoint: Ent. B Max Activity

Below: 5 molecules and their reported Ent. B Max Activity.
- molecule: "Cc1cccc(C)c1-c1nc2nc(c1C1=CCOCC1)OC[C@@H](C)NC(=O)c1cccc(c1)S(=O)(=O)N2"
  Ent. B Max Activity: "++ (++ is 30-60%)"
- molecule: "Cc1cccc(C)c1-c1nc2nc(c1/C=C/C(C)(C)C)OC[C@@H](C)NC(=O)c1cccc(c1)S(=O)(=O)N2"
  Ent. B Max Activity: "++ (++ is 30-60%)"
- molecule: "CCc1c2nc(nc1-c1c(C)cccc1C)NS(=O)(=O)c1cccc(c1)C(=O)N[C@@H]1CN(C3CC4(CCCCC4)C3)C[C@H]1O2"
  Ent. B Max Activity: "+++ (+++ is >60%)"
- molecule: "CCc1c2nc(nc1-c1c(C)cccc1C)NS(=O)(=O)c1cccc(c1)C(=O)N(C1CC3(CC3)C1)[C@H](CC(C)(C)C)CO2"
  Ent. B Max Activity: "+++ (+++ is >60%)"
- molecule: "COC(=O)NC1CC2(C1)CC(N1C(=O)c3cccc(c3)S(=O)(=O)Nc3nc(c(C)c(-c4c(C)cccc4C)n3)OC[C@H]1CC(C)C)C2 (stereo in doubt) [Compound 69]"
  Ent. B Max Activity: "+++ (+++ is >60%)"

Query: Find the recorded Ent. B Max Activity belonging to Cc1cccc(C)c1-c1nc2nc(c1C)OC[C@@H](CC(C)(C)C)N(C1CC3(CC(CO)C3)C1)C(=O)c1cccc(c1)S(=O)(=O)N2 (stereo in doubt) [Compound 79] and report it.
Response: +++ (+++ is >60%)

###

# subject_of_test: CFTR (Homo sapiens, UniProt P13569, DEL508-508)
# Construct: endogenous in cells; host or cells: primary human bronchial epithelial cells, F508del/MF genotype
# assay_info: HBE Assay: Ussing chamber assay of CFTR-mediated short-circuit currents in F508del/MF-HBE cells with 1 μM Ivacaftor
# Format: cell-based
# experimental_context: with 1 μM Ivacaftor, 18-24 hours, 20% human serum
reported_endpoint: HBE Max Activity

- molecule: "Cc1cccc(C2CC2)c1-c1nc2nc(c1C)OC[C@@H](CC(C)(C)C)N(Cc1ccc(N3CCOCC3)cn1)C(=O)c1cccc(c1)S(=O)(=O)N2 (atropisomer, axis not shown)"
  result: "+++ (+++ is >600%)"
- molecule: "Cc1cccc(CC(C)C)c1-c1nc2nc(c1C)OC[C@@H](CC(C)(C)C)N(Cc1ncc(N(C)CC(C)(C)C)cn1)C(=O)c1cccc(c1)S(=O)(=O)N2 (single isomer, unassigned)"
  result: "+++ (+++ is >600%)"
- molecule: "Cc1cccc(CC2CCCCC2)c1-c1nc2nc(c1C)OC[C@@H](CC(C)(C)C)NC(=O)c1cccc(c1)S(=O)(=O)N2 (atropisomer, axis not shown) [Compound 311]"
  result: "+++ (+++ is >600%)"
- molecule: "CCc1cccc(C)c1-c1nc2nc(c1C)OC[C@@H](CC(C)(C)C)N(Cc1ccc(N3CCOCC3)cn1)C(=O)c1cccc(c1)S(=O)(=O)N2 (atropisomer, axis not shown) [Compound 287]"
  result: "+++ (+++ is >600%)"

Switching to the query record.
Query: What value of HBE Max Activity on CFTR (Homo sapiens, UniProt P13569, DEL508-508) does Cc1cccc(CC2CCCCC2)c1-c1nc2nc(c1C(F)(F)F)OC[C@@H](CC(C)(C)C)N(Cc1ncc(N3CCOCC3)cn1)C(=O)c1cccc(c1)S(=O)(=O)N2 (atropisomer, axis not shown) have?
Response: +++ (+++ is >600%)

###

# subject_of_test: CFTR (Homo sapiens)
# assay_info: Membrane Potential Dye, Enteroid Assay B
# Format: cell-based
reported_endpoint: Ent. B Max Activity

Below: 5 compounds and their reported Ent. B Max Activity.
- compound: "COC1CC(N2C(=O)c3cccc(c3)S(=O)(=O)Nc3nc(c(C)c(-c4c(C)cccc4C)n3)OC[C@H]2CC2(C(F)(F)F)CC2)C1 (stereo partly drawn) [Compound 100]"
  subject_of_test: "CFTR (Homo sapiens)"
  Ent. B Max Activity: "+++ (+++ is >60%)"
- compound: "Cc1cccc(C)c1-c1nc2nc(c1C)OC[C@@H](CC(C)C)NC(=O)c1cccc(c1)S(=O)(=O)N2"
  subject_of_test: "CFTR (Homo sapiens)"
  Ent. B Max Activity: "+++ (+++ is >60%)"
- compound: "COCCN1CCC2(CC1)CC(N1C(=O)c3cccc(c3)S(=O)(=O)Nc3nc(c(F)c(-c4c(C)cccc4C)n3)OC[C@H]1CC(C)C)C2"
  subject_of_test: "CFTR (Homo sapiens)"
  Ent. B Max Activity: "+++ (+++ is >60%)"
- compound: "Cc1cccc(C)c1-c1nc2nc(c1C)OC[C@@H](CC(C)C)N(C1CC3(CC(CO)C3)C1)C(=O)c1cccc(c1)S(=O)(=O)N2 (stereo in doubt) [Compound 66]"
  subject_of_test: "CFTR (Homo sapiens)"
  Ent. B Max Activity: "+++ (+++ is >60%)"
- compound: "Cc1cccc(C)c1-c1nc2nc(c1C)OC[C@@H](CC1(C(F)(F)F)CC1)N(C1CC3(CC(NC(=O)OC(C)(C)C)C3)C1)C(=O)c1cccc(c1)S(=O)(=O)N2 (stereo in doubt) [Compound 98]"
  subject_of_test: "CFTR (Homo sapiens)"
  Ent. B Max Activity: "+++ (+++ is >60%)"

Query: Find the recorded Ent. B Max Activity belonging to `Cc1cccc(C)c1-c1nc2nc(c1F)O[C@H](c1ccc(C(C)(C)C)cc1)[C@@H](C)NC(=O)c1cccc(c1)S(=O)(=O)N2` and report it.
Response: +++ (+++ is >60%)

Query: Find the recorded Ent. B Max Activity belonging to `Cc1cccc(C)c1-c1nc2nc(c1-c1cnn(C)c1)O[C@H](C)CNC(=O)c1cccc(c1)S(=O)(=O)N2` and report it.
Response: + (+ is <30%)

Query: Find the recorded Ent. B Max Activity belonging to `Cc1cccc(C)c1-c1nc2nc(c1C#N)OC[C@@H](CC(C)C)NC(=O)c1cccc(c1)S(=O)(=O)N2` and report it.
Response: +++ (+++ is >60%)

Query: Find the recorded Ent. B Max Activity belonging to `Cc1cccc(C)c1-c1nc2nc(c1-c1cnn(C)c1)OC[C@@H](C)NC(=O)c1cccc(c1)S(=O)(=O)N2` and report it.
Response: + (+ is <30%)

Query: Find the recorded Ent. B Max Activity belonging to `Cc1cccc(C)c1-c1nc2nc(c1C)OC[C@@H](CC(C)(C)O)N(Cc1ncccn1)C(=O)c1cccc(c1)S(=O)(=O)N2` and report it.
Response: +++ (+++ is >60%)

Query: Find the recorded Ent. B Max Activity belonging to `Cc1cccc(C)c1-c1nc2nc(c1F)OC[C@@H](CC(C)C)N(C1CC3(CCN(C(=O)OC(C)(C)C)CC3)C1)C(=O)c1cccc(c1)S(=O)(=O)N2` and report it.
Response: +++ (+++ is >60%)

###

# subject_of_test: CFTR (Homo sapiens, UniProt P13569, DEL508-508)
# Construct: endogenous in cells; host or cells: primary human bronchial epithelial cells, F508del/MF genotype
# assay_info: HBE Assay: Ussing chamber assay of CFTR-mediated short-circuit currents in F508del/MF-HBE cells with 1 μM Ivacaftor
# Assay type: cell-based
# experimental_context: with 1 μM Ivacaftor, 18-24 hours, 20% human serum
reported_endpoint: HBE Max Activity

- compound: "Cc1cccc(CC(C)C)c1-c1nc2nc(c1C)OC[C@@H](C(C)C)N(Cc1ncc(N3CCC(C)(C)C3)cn1)C(=O)c1cccc(c1)S(=O)(=O)N2"
  subject_of_test: "CFTR (Homo sapiens, UniProt P13569, DEL508-508)"
  reported_endpoint: "HBE Max Activity"
  result: "+++ (+++ is >600%)"
- compound: "COCCN(C)c1cnc(CN2C(=O)c3cccc(c3)S(=O)(=O)Nc3nc(c(C)c(-c4c(C)cccc4CC4CCCCC4)n3)OC[C@H]2CC(C)(C)C)cn1"
  subject_of_test: "CFTR (Homo sapiens, UniProt P13569, DEL508-508)"
  reported_endpoint: "HBE Max Activity"
  result: "+++ (+++ is >600%)"
- compound: "Cc1cccc(CC(C)C)c1-c1nc2nc(c1C)OC[C@@H](CC(C)(C)C)N(Cc1cccc(N(C)C(C)C)n1)C(=O)c1cccc(c1)S(=O)(=O)N2 (atropisomer, axis not shown)"
  subject_of_test: "CFTR (Homo sapiens, UniProt P13569, DEL508-508)"
  reported_endpoint: "HBE Max Activity"
  result: "+++ (+++ is >600%)"
